Give measured IC50 for each item. Keep answers brief.
target: C-X-C chemokine receptor type 6 (Homo sapiens); test: potency against CXCR6 with APJ panel – cell-based, beta-arrestin, DiscoveRx, uHTS hits, dose response (AID 624129); details: CXCR6 beta-arrestin (DiscoveRx) antagonist cell assay, CXCR6, dose range 1, mean IC50 across replicates
Answers are plain numbers, in µM.

Here is how some compounds turned out for IC50.
Query: In one line, give reported IC50 of the entry CC(O)CN(CC(C)O)c1ccc2c(c1)Cc1cc([N+](=O)[O-])ccc1-2 (stereo unspecified) .
Reply: 21.4

Query: Please look at this compound and report its IC50: CCOc1ccccc1NC(=O)c1nc(S(=O)(=O)Cc2ccccc2)ncc1Cl
Reply: 10.7

Query: Name the recorded IC50 of the compound listed here: COc1ccc(NC(=O)/C(Cl)=C(/Cl)S(=O)(=O)Cc2ccc(C)cc2)cn1
Reply: 0.897

Below are 5 compounds. Give each one its IC50.
1. NC(=S)NN=C1c2cc(Cl)ccc2-c2c1cc(Cl)cc2[N+](=O)[O-]
2. CS(=O)(=O)c1ccc(C(=O)OCC(=O)N2CCN(CCC3CCCCC3)CC2)cc1[N+](=O)[O-]
3. C/C(=N\NC(=O)c1cc(-c2cccs2)nc2ccccc12)c1ccccn1
4. Cn1cnc([N+](=O)[O-])c1S(=O)(=O)c1cccc(Cl)c1
5. COc1ccc(C)c(-n2c(=O)n(Cc3ccccc3)c(=O)c3[nH]cnc32)c1

Reply:
1: 14.1; 2: 11.2; 3: 4.74; 4: 12.1; 5: 12.3

Query: Write down IC50 measured for item O=C(CSc1nc(-c2ccco2)cc(C(F)(F)F)n1)NCCCn1ccnc1
Reply: 16.9
